# growth per entry
- System: HT29 colon
- assay-summary: NCI-60 one-dose screen, 48 h (100 = growth as untreated, 0 = no growth, -100 = all killed)
- experimental-context: 10 µM unless noted
This is part of a sample that, as a whole, favours compounds with a hit. Of some 83,000 tested, about 20% had one in any assay.
Number in %, nothing else.

Use these answered entries as a reference point.
COC1C(O)CC(OC2CC(Oc3cc4cc5c(c(O)c4c(O)c3C)C(=O)[C@@H](OC3CC(OC4CC(OC6CC(C)(O)C(OC(C)=O)C(C)O6)C(O)C(C)O4)C(O)C(C)O3)[C@H]([C@H](OC)C(=O)[C@@H](O)[C@@H](C)O)C5)OC(C)C2OC(C)=O)OC1C (stereo partly specified); -23.2
O=c1[nH]c(=O)[nH]c(=O)[nH]1; 115
CN1CCN(c2ccc(Cl)cc2)CC1; 26.4
Cc1cc[c-]cc1.Fc1c[c-]c(-c2ccccn2)c(F)c1.N#CCC[PH+](CCC#N)c1ccccc1.[Pt+2]; 37.2
CN(C)c1ccc(C=C2C(=O)NC(=O)NC2=O)cc1; 113

Enquiry: Return growth measured with HT29 colon given this compound: CC(=O)Cc1ccc2c(c1)OCO2
Return: 98.6

---

- Tested on: HCT-15 colon
- assay-summary: NCI-60 one-dose screen, 48 h (100 = growth as untreated, 0 = no growth, -100 = all killed)
- experimental-context: 10 µM unless noted
The panel holds about 83,000 compounds, 20% with a hit somewhere; the sample as a whole holds those more often. Active and inactive are the calls of the source. The calls were made as follows: active = growth percent below 10; inactive = the rest.
outcome-measure: growth

ClC1OC(Cl)(Cl)C(Cl)(Cl)OC1(Cl)Cl (stereo unspecified); 106% (inactive)
Cc1cc(N)ccc1N; 105% (inactive)

Enquiry: Return growth measured with HCT-15 colon given this compound: Cc1ccc(N2CCN(CCC#N)CC2)cc1
Return: 97.2% (inactive)

---

- Test system: NCI-H460 lung
- assay-summary: NCI-60 one-dose screen, 48 h
- experimental-context: 10 µM unless noted
The panel holds about 83,000 compounds, 20% with a hit somewhere; the sample as a whole holds those more often. The source made the active and inactive calls. The calls were made as follows: active = growth percent below 10; inactive = the rest.
Use one of these outcomes when replying: active, inactive

// below: answered compounds
CC[C@H](C)[C@H](NC(=O)[C@H]1CCCCN1C)C(=O)N(C)[C@H](CCc1nc(C(=O)N[C@@H](Cc2ccccc2)C[C@H](C)C(=O)O)cs1)C(C)C; active
O=[N+]([O-])c1ccc(CI)cc1; inactive
CCC1(NC(=O)c2cc(F)c(F)c(F)c2F)C(=O)NC(=O)N(C(C)C)C1=O (configuration not stated); inactive

Enquiry: Called result for CCCCOC(N)=O
Return: inactive

Enquiry: Repeat with CC1=C2[C@H]3OC(=O)[C@@H](C)[C@@H]3CC[C@@]2(C)C=CC1=O
Return: inactive

Enquiry: Repeat with CCOC(=O)c1ccccc1C(=O)OCC
Return: inactive

Enquiry: Repeat with N#CCCc1ccccc1
Return: inactive

---

- Test system: SK-MEL-2 melanoma
- assay-summary: NCI-60 one-dose screen, 48 h
- experimental-context: 10 µM unless noted
About 83,000 compounds went through this panel and 20% of them were active in at least one assay; those are over-represented in the sample as a whole. The source made the active and inactive calls. Rule for the calls: active = growth percent below 10; inactive = the rest.
Use one of these outcomes when replying: y = active, n = inactive

// below: answered molecules
CC1=C([Te]c2ccccc2)C(=O)c2ccccc2C1=O; y
O=C(O)C(F)F; n
Oc1ccccc1C=NCCN=Cc1ccccc1O; n

Enquiry: Called result for C[N+]1(C)CCCC1c1cccnc1 (configuration not stated)
Return: n

Enquiry: Repeat with C[C@]12CC[C@H]3[C@@H](C[C@@H]4SC(Nc5ccccc5)=N[C@@]45C/C(=N/O)CC[C@]35C)[C@@H]1CCC2=O
Return: n

Enquiry: Repeat with CC[C@@H](C)C(=O)O[C@H]1[C@H](O)[C@H]2[C@@H](CN3C[C@@H](C)CC[C@H]3[C@@]2(C)O)[C@@H]2C[C@]34O[C@]5(O)[C@@H](OC(=O)[C@@](C)(O)CC)CC[C@@]3(C)[C@@H]5[C@@H](OC(C)=O)[C@@H](OC(C)=O)[C@H]4[C@@]21O
Return: n

Enquiry: Repeat with CCC(=O)C(CC(C)[N+](C)(C)C)(c1ccccc1)c1ccccc1 (configuration not stated)
Return: n

Enquiry: Repeat with CC[C@H](C)[C@H]1O[C@]2(C=C[C@@H]1C)C[C@@H]1C[C@@H](C/C=C(\C)[C@@H](O[C@H]3C[C@H](OC)[C@@H](O[C@H]4C[C@H](OC)[C@@H](NC)[C@H](C)O4)[C@H](C)O3)[C@@H](C)/C=C/C=C3\CO[C@@H]4[C@H](O)C(C)=C[C@@H](C(=O)O1)[C@]34O)O2
Return: y

Enquiry: Repeat with NC1CN2CCC1CC2 (configuration not stated)
Return: n

Enquiry: Repeat with COc1ccc2c(c1)C1(C)CCN(C)CC(C1)C2O (configuration not stated)
Return: n
